Attribution: paper PMC9303331

Target: T1, mGLP‐1 receptor (mouse, UniProt O35659 22-463)
T1 construct: mouse glucagon-like peptide-1 receptor, pcDNA3.1(+) plasmid from ThermoFisher; also called mouse GLP‐1 receptor; source: COS-7, transiently transfected (pcDNA3.1(+)), on whole cells
T1 sequence (looked up): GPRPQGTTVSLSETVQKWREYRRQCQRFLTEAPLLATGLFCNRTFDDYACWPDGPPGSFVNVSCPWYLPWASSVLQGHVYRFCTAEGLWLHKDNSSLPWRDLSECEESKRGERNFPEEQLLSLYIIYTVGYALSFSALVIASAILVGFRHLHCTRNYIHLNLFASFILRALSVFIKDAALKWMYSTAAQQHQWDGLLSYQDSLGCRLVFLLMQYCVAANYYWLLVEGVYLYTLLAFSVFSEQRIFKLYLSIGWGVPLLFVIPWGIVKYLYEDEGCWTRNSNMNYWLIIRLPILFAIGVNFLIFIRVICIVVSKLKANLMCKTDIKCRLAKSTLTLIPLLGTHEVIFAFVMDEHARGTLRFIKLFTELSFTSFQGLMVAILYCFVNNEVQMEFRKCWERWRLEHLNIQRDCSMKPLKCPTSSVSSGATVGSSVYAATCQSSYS
Settings: one partner purified
READOUT: Ki (nM)
Give bare numbers, in nM.

Requested field: Ki. Item: HADGSFSDEMNTILDNLAARDFINWLIQTKITD [hGLP‐2(1–33)] 208
